# subjectOfTest: T1, Peptide F (monkey PAR-2), N-terminal biotinylated (Monkey (Macaca mulatta), N-terminal biotin via G4S linker)
# T1 construct: also called Peptide F N-Term
# measurementDescription: SPR, peptide immobilized
Below is a list of entries, each paired with its recorded Kd value.

| binder | Kd |
| --- | --- |
| H4H579P (antibody, human IgG4, V domains shown, also called H1H579P variable regions) VH: QVQLVESGGGVVQPGRSLRLSCVASGFTFSRYGMHWVRQAPGKGLEWLIVISYDGINKYYADSVKGRFTISRDNSKNTVYLQMNSLRAEDTGVYYCAKGDFWSGYFDYWGQGTLVTVSS VL: DIVMTQTPLSSPVTLGQPASISCRSSQSLVHSDGNTYLSWLHQRPGQPPRLLIYKISNRFSGVPDRFSGSGAGTDFTLQISRVEAEDVGIYYCMQGTQFPTFGGGTKVEIK | 0.796 nM |
| H4H585P (antibody, human IgG4, V domains shown, also called H1H585P variable regions) VH: QVQLVESGGGVVQPGRSLRLSCVASGFTFSRYGMHWVRQAPGKGLEWLIVISYDGINKYYADSVKGRFTISRDNSKNTVYLQMNSLRAEDTAVYYCAKGDFWSGYFDYWGQGTLVTVSS VL: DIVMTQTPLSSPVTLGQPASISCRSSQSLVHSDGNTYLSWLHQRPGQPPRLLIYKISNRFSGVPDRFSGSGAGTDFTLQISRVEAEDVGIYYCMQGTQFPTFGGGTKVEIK | 0.899 nM |
| H4H588N (antibody, human IgG4, V domains shown, also called H2M588N variable regions) VH: EVQLLESGGGLVQPGGSLRLSCAASGFTFSSYAMTWVRQAPGKGLYWVSAISGGRGSAYYADSVKGRFTISRDNSKNTLYLQMNSLRAEDTAVYYCAKEGDSGYDLAYWGRGTLVTVSS VL: DIQMTQSPSSLSASVGDRVTITCRARQGISNNLAWLQQKPGKAPKSLIYAASSLQSGIPSKFSGSGSGTYFTLTISSLQPEDFATYYCQQYKSSPLTFGGGTKVEIK | 1.81 nM |
